Biological target: D(1B) dopamine receptor (Homo sapiens) (UniProt P21918)
Sequence (P21918 whole entry): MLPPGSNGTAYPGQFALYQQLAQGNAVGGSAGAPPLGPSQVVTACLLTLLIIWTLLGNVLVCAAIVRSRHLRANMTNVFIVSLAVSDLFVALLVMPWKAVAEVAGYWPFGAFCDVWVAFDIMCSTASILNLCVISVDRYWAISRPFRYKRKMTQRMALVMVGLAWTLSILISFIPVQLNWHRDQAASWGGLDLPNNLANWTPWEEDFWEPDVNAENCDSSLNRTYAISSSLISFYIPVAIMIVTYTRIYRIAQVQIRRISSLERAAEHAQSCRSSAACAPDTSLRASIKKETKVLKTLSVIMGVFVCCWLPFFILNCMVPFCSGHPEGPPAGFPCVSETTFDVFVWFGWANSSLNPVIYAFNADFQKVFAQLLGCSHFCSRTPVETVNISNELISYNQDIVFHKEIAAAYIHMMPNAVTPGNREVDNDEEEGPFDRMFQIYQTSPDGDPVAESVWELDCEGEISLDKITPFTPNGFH
Settings: Compound concentration 10 µM; call rule not given here
Valid outcomes are listed here; reply with one: active, inactive

Check the results log: what was the call for CCC[C@H](Oc1cc(C)c(-n2cc(C(F)(F)F)cn2)c(C)c1)c1ccc(C(=O)NCCC(=O)O)cc1 ?
inactive

Check the results log: what was the call for c1ccc(N2CCN(Cc3nc4ccccc4[nH]3)CC2)nc1 ?
inactive

Check the results log: what was the call for CS(=O)(=O)NC[C@H]1CC[C@H](Nc2nc3c(s2)CCSc2ccccc2-3)CC1 ?
inactive

Check the results log: what was the call for CC(C)NCC(O)COc1cccc2[nH]ccc12 (stereo not given) ?
inactive

Check the results log: what was the call for CC(C)NCC(O)COc1cccc2ccccc12 (stereo not given) ?
inactive

Check the results log: what was the call for S=C(NCCCc1c[nH]cn1)NCCCN(Cc1ccc(Cl)c(Cl)c1)c1ccc(Br)cn1 ?
active

Check the results log: what was the call for NC(=O)[C@@H]1CCCN1C(=O)[C@H](Cc1c[nH]cn1)NC(=O)[C@@H]1CCC(=O)N1 ?
inactive

Check the results log: what was the call for CCN(CC)CCCCC1CCN(CC(=O)N2c3ccccc3C(=O)Nc3cccnc32)CC1 ?
active

Check the results log: what was the call for O=C(O)CC/C=C\C[C@@H]1CO[C@H](c2ccccc2Cl)O[C@@H]1c1ccccc1O ?
inactive

Check the results log: what was the call for COc1cc(-n2cnc3cc(-c4ccc(Cl)cc4)sc3c2=O)ccc1OCCN1CCCC1 ?
inactive

Hello, the source for this data is ChEMBL document CHEMBL5442219, in case you need it.
